system: KM12 colon; experiment: NCI tumour cell line growth inhibition, 48 h; in the data active means GI50 below about 0.43 µM; inactive means the rest
Classes used: 1 = active, 0 = inactive

[[record]]
compound_string = "O=C(O)c1nc(NCc2nc3cc(Cl)ccc3o2)n[nH]1"
class_name = 0

[[record]]
compound_string = "Cc1cc([NH-])c([NH-])cc1C.[Cl][Pt+2][Cl]"
class_name = 0

[[record]]
compound_string = "N#C[Se]Cc1cc(-c2ccccc2)n(-c2ccc(S(N)(=O)=O)cc2)n1"
class_name = 0

[[record]]
compound_string = "CCOC(=O)Oc1c(OC)cc(C(=O)c2ccc(OC)c(O)c2OC)cc1OC"
class_name = 0

[[record]]
compound_string = "CC(=O)c1c(C(F)(F)F)n([O-])c2ccccc2[n+]1=O"
class_name = 0

[[record]]
compound_string = "CCOc1ccccc1CCN=C1NC(=O)/C(=C/c2ccc3ncccc3c2)S1"
class_name = 0

[[record]]
compound_string = "Cc1c2cnccc2c(C)c2c1c1cc(C#N)ccc1n2C"
class_name = 1

[[record]]
compound_string = "COc1ccc2c(c1)C(=O)/C(=C/c1cccc(OCC(=O)c3ccccc3)c1)CC2"
class_name = 0

[[record]]
compound_string = "COc1ccc(-c2noc(C(=O)O)c2-c2cc(OC)c(OC)c(OC)c2)cc1"
class_name = 0

[[record]]
compound_string = "C/C(=N/O)c1cccc(Nc2cc(-n3nnc4ccccc43)nc3ccccc23)c1"
class_name = 0

[[record]]
compound_string = "Nc1nc2ccc(-c3nc4ccc5[nH]ncc5c4c4c3CCC4)cc2s1"
class_name = 1


====

system: SF-268 CNS; assay: NCI tumour cell line growth inhibition, 48 h
PARAMETER: TGI

[[record]]
compound = "N=C1C(=N)c2ccccc2-c2ccccc21.[Cl-].[Ru+2].c1ccc(-c2ccccn2)nc1.c1ccc(-c2ccccn2)nc1"
system_tested = "SF-268 CNS"
observed_result = "> 100 µM"

[[record]]
compound = "CN(C)CCNc1ccc2c(=O)n(CCN(C)C)c(=O)n3c4ccc(O)cc4c(=O)c1c23"
system_tested = "SF-268 CNS"
observed_result = "0.416 µM"

[[record]]
compound = "C#CCNC(CSSCC(N)C(=O)O)C(=O)O (stereo unspecified)"
system_tested = "SF-268 CNS"
observed_result = "> 100 µM"

[[record]]
compound = "c1cc[c]([Sn][c]2ccccc2)cc1"
system_tested = "SF-268 CNS"
observed_result = "25 µM"

[[record]]
compound = "COc1cc2c(c3c1c(=O)c1ccccc1n3C)C=CC1(CCCC1)O2"
system_tested = "SF-268 CNS"
observed_result = "46.8 µM"

[[record]]
compound = "Cc1cc([NH-])c([NH-])cc1C.[Cl][Pt+2][Cl]"
system_tested = "SF-268 CNS"
observed_result = "34.6 µM"

[[record]]
compound = "CC1=NNC(=O)C1C1C(=O)NN=C(c2c[nH]c3ccccc23)C1Br (stereo unspecified)"
system_tested = "SF-268 CNS"
observed_result = "> 100 µM"

[[record]]
compound = "N#CN1C2CCC1CC(=O)C2"
system_tested = "SF-268 CNS"
observed_result = "> 100 µM"

[[record]]
compound = "Oc1cc(Cc2ccccc2)c(Cc2ccccc2)cc1O"
system_tested = "SF-268 CNS"
observed_result = "> 10 µM"

[[record]]
compound = "COC(=O)[C@H]1C=NN[C@@H]1C(=O)N1[C@H]2CC3CC[C@@]2(CS1(=O)=O)C3(C)C"
system_tested = "SF-268 CNS"
observed_result = "> 100 µM"

[[record]]
compound = "NC(=O)CNC(=O)[C@@H]1CC(OCCC(=O)O)CN1C(=O)C1CCCN1C(=O)OCc1ccccc1 (stereo partly specified)"
system_tested = "SF-268 CNS"
observed_result = "> 100 µM"

[[record]]
compound = "CC(C)(C)c1ccc(OCCOc2ccc(C(C)(C)C)cc2N)c(N)c1"
system_tested = "SF-268 CNS"
observed_result = "> 100 µM"

[[record]]
compound = "CN(C)CCNC(=O)Cn1ccc(=O)c2cc([N+](=O)[O-])ccc21"
system_tested = "SF-268 CNS"
observed_result = "> 100 µM"

[[record]]
compound = "COC(=O)/C(=N\\NC(C)(C)C)C(C(=O)OC)C(=O)C(=O)Nc1cc(Cl)ccc1Cl (stereo unspecified)"
system_tested = "SF-268 CNS"
observed_result = "> 100 µM"

[[record]]
compound = "CCC1(O)C(=O)OCc2c1cc1n(c2=O)Cc2cc3ccccc3nc2-1 (stereo unspecified)"
system_tested = "SF-268 CNS"
observed_result = "15.2 µM"

[[record]]
compound = "CC(=O)Nc1ccc(-c2cc(C(=O)O)c3cc4ccccc4cc3n2)cc1"
system_tested = "SF-268 CNS"
observed_result = "> 100 µM"

[[record]]
compound = "Nc1ncnc2c1ncn2C1OC(CSCC(F)(F)F)C(O)C1O (stereo unspecified)"
system_tested = "SF-268 CNS"
observed_result = "> 100 µM"

[[record]]
compound = "COc1cccc(N2C(=O)CSC2c2cccc(Oc3ccccc3)c2)c1 (stereo unspecified)"
system_tested = "SF-268 CNS"
observed_result = "42.9 µM"

[[record]]
compound = "N#CC(C#N)=C/C=C(\\Cl)c1ccc(Cl)cc1"
system_tested = "SF-268 CNS"
observed_result = "50.5 µM"

[[record]]
compound = "CC(N=NNc1ccc(-c2nc3ccccc3[nH]2)cc1)C(=O)O (stereo unspecified)"
system_tested = "SF-268 CNS"
observed_result = "> 100 µM"

[[record]]
compound = "CCOC(=O)NC(=O)c1cn(CCN2CCN(C(=O)NCCCCCCNC(=O)N3CCN(CCn4cc(C(=O)NC(=O)OCC)c(=O)[nH]c4=O)CC3)CC2)c(=O)[nH]c1=O"
system_tested = "SF-268 CNS"
observed_result = "> 100 µM"


====

TGI by entry:
tested on: SF-268 CNS; assay: NCI tumour cell line growth inhibition, 48 h
PARAMETER: TGI

[[record]]
compound = "CC1=C(C(=O)Nc2ccccc2C)C(c2ccc(Cl)cc2)C(C(=O)Nc2ccccc2C)=C(C)N1"
system_tested = "SF-268 CNS"
observed_result = "> 100 µM"

[[record]]
compound = "COc1ccc(N2CC(=O)N(C(=O)COc3ccc(OCC(=O)N4C(=O)CN(c5ccc(OC)cc5)C4=S)cc3)C2=S)cc1"
system_tested = "SF-268 CNS"
observed_result = "> 100 µM"

[[record]]
compound = "Cn1ccnc1CCc1c(Cl)cccc1Cl"
system_tested = "SF-268 CNS"
observed_result = "> 100 µM"

[[record]]
compound = "CCCN1C(=O)NC(=O)C(CC)(N2C(=O)c3c(F)c(F)c(F)c(F)c3C2=O)C1=O (stereo not given)"
system_tested = "SF-268 CNS"
observed_result = "5.07 µM"

[[record]]
compound = "C=CCOC(=O)N1c2ccc(O[Si](C)(C)C(C)(C)C)cc2[C@@]23O[C@@]24[C@@H]1C#C/C=C\\C#C[C@]3(O)C(OC)(OC)C[C@@H]4C"
system_tested = "SF-268 CNS"
observed_result = "> 100 µM"


====

GI50 by entry:
tested on: IGROV1 ovarian; experiment: NCI tumour cell line growth inhibition, 48 h
PARAMETER: GI50

[[record]]
compound = "Cc1ccc2cnc(N)c(C#Cc3cc(C(=O)Nc4ccc(CN5CCN(C)CC5)c(C(F)(F)F)c4)cnc3C)c2c1"
system_tested = "IGROV1 ovarian"
parameter = "GI50"
observed_result = "128 nM"

[[record]]
compound = "N#C[Se]Cc1cc(-c2ccccc2)n(-c2ccc(S(N)(=O)=O)cc2)n1"
system_tested = "IGROV1 ovarian"
parameter = "GI50"
observed_result = "322 nM"

[[record]]
compound = "CC1CC(C)CC(C)C(O)/C(C#N)=C/C=C/CC(C2CCCC2C(=O)O)OC(=O)CC(O)C(C)C1 (stereo unspecified)"
system_tested = "IGROV1 ovarian"
parameter = "GI50"
observed_result = "23.1 nM"

[[record]]
compound = "COc1ccc2c(c1)C(=O)/C(=C/c1cccc(OCC(=O)c3ccccc3)c1)CC2"
system_tested = "IGROV1 ovarian"
parameter = "GI50"
observed_result = "4190 nM"

[[record]]
compound = "C/C(=N/O)c1cccc(Nc2cc(-n3nnc4ccccc43)nc3ccccc23)c1"
system_tested = "IGROV1 ovarian"
parameter = "GI50"
observed_result = "29900 nM"

[[record]]
compound = "O=S(=O)(Nc1ccc(Br)cc1)c1ccc(-c2cnc(C3CC3)o2)cc1"
system_tested = "IGROV1 ovarian"
parameter = "GI50"
observed_result = "2570 nM"

[[record]]
compound = "O=C(Nc1cccc(Cl)c1)Nn1cnnc1"
system_tested = "IGROV1 ovarian"
parameter = "GI50"
observed_result = "> 50000 nM"

[[record]]
compound = "CCSC1=NC2C(N(CC)C(=O)N2CC)N1/N=C/C=C/c1ccccc1[N+](=O)[O-] (stereo unspecified)"
system_tested = "IGROV1 ovarian"
parameter = "GI50"
observed_result = "246 nM"

[[record]]
compound = "Cc1c2cnccc2c(C)c2c1c1cc(C#N)ccc1n2C"
system_tested = "IGROV1 ovarian"
parameter = "GI50"
observed_result = "140 nM"

[[record]]
compound = "CCCCN(CCCC)Cc1cc(Nc2ccnc3cc(Cl)ccc23)ccc1O"
system_tested = "IGROV1 ovarian"
parameter = "GI50"
observed_result = "7360 nM"

[[record]]
compound = "O=C(NCC1CC1)c1ccc(-c2cccc(C(=O)NC3CC3)c2)cc1"
system_tested = "IGROV1 ovarian"
parameter = "GI50"
observed_result = "> 25000 nM"

[[record]]
compound = "Nc1nc2ccc(-c3nc4ccc5[nH]ncc5c4c4c3CCC4)cc2s1"
system_tested = "IGROV1 ovarian"
parameter = "GI50"
observed_result = "288 nM"

[[record]]
compound = "COc1ccc(-c2noc(C(=O)O)c2-c2cc(OC)c(OC)c(OC)c2)cc1"
system_tested = "IGROV1 ovarian"
parameter = "GI50"
observed_result = "4910 nM"

[[record]]
compound = "Nc1ncn([C@@H]2S[C@H](CO)[C@@H](O)[C@@H]2F)c(=O)n1"
system_tested = "IGROV1 ovarian"
parameter = "GI50"
observed_result = "3430 nM"

[[record]]
compound = "COc1cc(C)ccc1C(=O)c1ccc(C)cc1OC"
system_tested = "IGROV1 ovarian"
parameter = "GI50"
observed_result = "6580 nM"

[[record]]
compound = "CCc1c2c(nc3ccc(OCc4ccc(B(O)O)cc4)cc13)-c1cc3c(c(=O)n1C2)COC(=O)[C@]3(O)CC"
system_tested = "IGROV1 ovarian"
parameter = "GI50"
observed_result = "161 nM"

